Reported combination Emax values follow for various compounds
System: CAL-27 (Oral Cavity Carcinoma)
assay details: combination Emax (second highest fraction inhibited in the dose matrix, 72 h); higher = more inhibition; extreme values may be limits of the assay
recorded metric: combination Emax

[[record]]
compound = "Cc1c2c(nn1C)CSCc1cc(n(C)n1)CSc1cc(c3ccccc3c1)OCCCc1c(C(=O)O)n(C)c3c-2c(Cl)ccc13 [AZD5991] + CN(C)CCCOc1ccc(-c2ccc3ncc4c(c3c2)n(C2CCOCC2)c(=O)n4C)cn1 [AZD0156] (first compound max 1 µM, 7x7, partner max 1 µM)"
experimental_target = "CAL-27 (Oral Cavity Carcinoma)"
recorded_metric = "combination Emax"
test_value = 0.958

[[record]]
compound = "CC(=O)c1c(C)c2cnc(Nc3ccc(N4CCNCC4)cn3)nc2n(C2CCCC2)c1=O [Palbociclib] + CC1(C)CCC(CN2CCN(c3ccc(C(=O)NS(=O)(=O)c4ccc(NCC5CCOCC5)c([N+](=O)[O-])c4)c(Oc4cnc5[nH]ccc5c4)c3)CC2)=C(c2ccc(Cl)cc2)C1 [Venetoclax] (first compound max 10 µM, 7x7, partner max 1 µM)"
experimental_target = "CAL-27 (Oral Cavity Carcinoma)"
recorded_metric = "combination Emax"
test_value = 0.0994

[[record]]
compound = "CN(CCO)CC[C@H](CSc1ccccc1)Nc1ccc(S(=O)(=O)NC(=O)c2ccc(N3CCC([C@@H](O)c4ccccc4-c4ccc(Cl)cc4)CC3)cc2)cc1S(=O)(=O)C(F)(F)F [AZD4320] + CN(C)CCCOc1ccc(-c2ccc3ncc4c(c3c2)n(C2CCOCC2)c(=O)n4C)cn1 [AZD0156] (first compound max 1 µM, 7x7, partner max 1 µM)"
experimental_target = "CAL-27 (Oral Cavity Carcinoma)"
recorded_metric = "combination Emax"
test_value = 0.158


----------
Tested on: COLO-792 (Melanoma);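 note: after 72 h of two-drug dosing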
assay details: Bliss excess, mean over the matrix (fraction); higher = more synergy
recorded metric: Bliss excess

[[record]]
molecule = "CS(=O)(=O)CCNCc1ccc(-c2ccc3ncnc(Nc4ccc(OCc5cccc(F)c5)c(Cl)c4)c3c2)o1 [Lapatinib] + C[C@@H](Oc1cc(-c2cnn(C3CCNCC3)c2)cnc1N)c1c(Cl)ccc(F)c1Cl [Crizotinib] (first compound max 10 µM, 7x7, partner max 10 µM)"
recorded_metric = "Bliss excess"
test_value = -0.0237

[[record]]
molecule = "CN(C)CCCOc1ccc(-c2ccc3ncc4c(c3c2)n(C2CCOCC2)c(=O)n4C)cn1 [AZD0156] + C[C@@H]1COCCN1C2=NC(=NC(=C2)C3(CC3)[S@](=N)(=O)C)C4=C5C=CNC5=NC=C4 [AZD6738] (first compound max 1 µM, 7x7, partner max 10 µM)"
recorded_metric = "Bliss excess"
test_value = -0.0297


----------
Tested on: 769-P (Kidney Carcinoma)
assay details: combination Emax (second highest fraction inhibited in the dose matrix, 72 h); higher = more inhibition; extreme values may be limits of the assay
recorded metric: combination Emax

[[record]]
compound = "C[C@@H]1COCCN1c1cc(C2([S@](C)(=N)=O)CC2)nc(-c2ccnc3[nH]ccc23)n1 [AZD6738] + O=C(c1cc(Cc2n[nH]c(=O)c3ccccc23)ccc1F)N1CCN(C(=O)C2CC2)CC1 [Olaparib] (first compound max 10 µM, 7x7, partner max 10 µM)"
test_value = 0.756

[[record]]
compound = "Cc1c2c(nn1C)CSCc1cc(n(C)n1)CSc1cc(c3ccccc3c1)OCCCc1c(C(=O)O)n(C)c3c-2c(Cl)ccc13 [AZD5991] + Cc1cc2ncnn2cc1Nc1ncc2c(n1)n(C1CCOCC1)c(=O)n2C [AZD7648] (first compound max 1 µM, 7x7, partner max 10 µM)"
test_value = 0.32

[[record]]
compound = "Cc1nc(Nc2ncc(C(=O)Nc3c(C)cccc3Cl)s2)cc(N2CCN(CCO)CC2)n1 [Dasatinib] + CC(=O)Nc1cccc(-n2c(=O)n(C3CC3)c(=O)c3c(Nc4ccc(I)cc4F)n(C)c(=O)c(C)c32)c1 [Trametinib] (first compound max 2 µM, 7x7, partner max 1 µM)"
test_value = 0.814

[[record]]
compound = "C=CCn1c(=O)c2cnc(Nc3ccc(N4CCN(C)CC4)cc3)nc2n1-c1cccc(C(C)(C)O)n1 [AZD1775] + Nc1ccn([C@@H]2O[C@H](CO)[C@@H](O)C2(F)F)c(=O)n1 [Gemcitabine] (first compound max 1 µM, partner max 0.3 µM)"
test_value = 0.868

[[record]]
compound = "Cc1cc2ncnn2cc1Nc1ncc2c(n1)n(C1CCOCC1)c(=O)n2C [AZD7648] + CN(C)CCCOc1ccc(-c2ccc3ncc4c(c3c2)n(C2CCOCC2)c(=O)n4C)cn1 [AZD0156] (first compound max 10 µM, 7x7, partner max 1 µM)"
test_value = 0.264

[[record]]
compound = "CC1(C)CCC(CN2CCN(c3ccc(C(=O)NS(=O)(=O)c4ccc(NCC5CCOCC5)c([N+](=O)[O-])c4)c(Oc4cnc5[nH]ccc5c4)c3)CC2)=C(c2ccc(Cl)cc2)C1 [Venetoclax] + C=CCn1c(=O)c2cnc(Nc3ccc(N4CCN(C)CC4)cc3)nc2n1-c1cccc(C(C)(C)O)n1 [AZD1775] (first compound max 1 µM, partner max 1 µM)"
test_value = 0.744

[[record]]
compound = "COc1cccc(OCCCN)c1-c1cc(Nc2cnc(C#N)cn2)n[nH]1 [Prexasertib] + O=C(c1cc(Cc2n[nH]c(=O)c3ccccc23)ccc1F)N1CCN(C(=O)C2CC2)CC1 [Olaparib] (first compound max 1 µM, 7x7, partner max 10 µM)"
test_value = 0.751

